# study conditions: in ethyl acetate, 278.15 K
outcome measure: solubility (mole fraction)

In [3]: df
Out[3]:
                  compound_structure_string  experimental_result
0  O=[N+]([O-])c1cccc2c([N+](=O)[O-])cccc12             0.000754

----------
# study conditions: in ethyl acetate, 303.15 K
outcome measure: solubility (mole fraction)

>>> print(df.to_string())
                  compound_structure_string  experimental_result
0  O=[N+]([O-])c1cccc2c([N+](=O)[O-])cccc12              0.00198

----------
# study conditions: in ethanol, 278.15 K
outcome measure: solubility (mole fraction)

In [3]: df
Out[3]:
                  compound_structure_string             outcome_measure  experimental_result
0  O=[N+]([O-])c1cccc2c([N+](=O)[O-])cccc12  solubility (mole fraction)             2.62e-05

----------
# study conditions: in n-propanol, 288.15 K
outcome measure: solubility (mole fraction)

>>> print(df.to_string())
                  compound_structure_string  experimental_result
0  O=[N+]([O-])c1cccc2c([N+](=O)[O-])cccc12             5.16e-05

----------
# study conditions: in ethylbenzene, 303.15 K
outcome measure: solubility (mole fraction)

In [3]: df
Out[3]:
                  compound_structure_string             outcome_measure  experimental_result
0  O=[N+]([O-])c1cccc2c([N+](=O)[O-])cccc12  solubility (mole fraction)              0.00166

----------
# study conditions: in n-propanol, 273.15 K
outcome measure: solubility (mole fraction)

In [3]: df
Out[3]:
                  compound_structure_string  experimental_result
0  O=[N+]([O-])c1cccc2c([N+](=O)[O-])cccc12             2.17e-05

----------
# study conditions: in chloroform, 285.65 K
outcome measure: solubility (mole fraction)

>>> print(df.to_string())
                  compound_structure_string  experimental_result
0  O=[N+]([O-])c1cccc2c([N+](=O)[O-])cccc12              0.00135

----------
# study conditions: in acetonitrile, 290.65 K
outcome measure: solubility (mole fraction)

                  compound_structure_string  experimental_result
0  O=[N+]([O-])c1cccc2c([N+](=O)[O-])cccc12              0.00053

----------
# study conditions: in chloroform, 303.15 K
outcome measure: solubility (mole fraction)

In [3]: df
Out[3]:
                  compound_structure_string  experimental_result
0  O=[N+]([O-])c1cccc2c([N+](=O)[O-])cccc12              0.00295

----------
# study conditions: in ethylbenzene, 308.15 K
outcome measure: solubility (mole fraction)

In [3]: df
Out[3]:
                  compound_structure_string             outcome_measure  experimental_result
0  O=[N+]([O-])c1cccc2c([N+](=O)[O-])cccc12  solubility (mole fraction)              0.00201

----------
# study conditions: in acetone, 305.65 K
outcome measure: solubility (mole fraction)

                  compound_structure_string  experimental_result
0  O=[N+]([O-])c1cccc2c([N+](=O)[O-])cccc12              0.00201
